I'd be grateful if you could share measured apparent KD of MS2 coat protein for these entries.
Tested on: MS2 coat protein
Assay: apparent KD of MS2 coat protein; higher = weaker reporter binding
Conditions: Eterna round: R107; input ligand: theophylline 2 mM
Quick note: give the figure in nM, leave out the unit.

The sequence listed as CUCCUGGGAGCGGCCGCCACUGGAGGCCUUGCGCGACAUGAGGAUCACCCAUGUUGGCCCGGCCUCAGGACCGGGUUCGCGCGAG [Same State - Tryptophan B Attempt #2] has a reported apparent KD of MS2 coat protein of 9.73

The sequence listed as GCGGUGGUCGGAAGGAGCGACAUGAGGAUCACCCAUGUCUCCCGUUAUGGGAGUUCCUUAGGUCAGGUAGGUCGCCGACUGCCGC [#1 Exclusion - Arginine B Attempt #21 (Inspired by Omei)] has a reported apparent KD of MS2 coat protein of 260

The sequence listed as ACAUGAGGAUCACCCAUGUGGAGCAGGGUACGAGGACCGGUACGGCCGCCACUCGAGCGUUAUGACGAGUGAAUGGCAACGAUGU [whbob_X-Trypto_A_V1.0] has a reported apparent KD of MS2 coat protein of 12.5

The sequence listed as ACAUGAGGAUCACCCAUGUAUGAUGUUCCUCGAGGACCGGUACGGCCGCCACUCGAACGAGUGGCGCGCGAGUGCGCACUCGCGC [aWa] has a reported apparent KD of MS2 coat protein of 16.8

The sequence listed as ACAUUUAACUGAAGGAGCGUGAUAAACAUGAGGAUCACCCAUGUACCACAGAUUCUUAGAUCACAGGUAGGUCGCAGACUAAUGA [JR_ExcArginiB_Sub013] has a reported apparent KD of MS2 coat protein of 12.6

The sequence listed as AAAUAAAUACAUGAGGAUCACCCAUGUGAAGGAGCGCCCGUUAGGGCAGGUAGGUCGCACAUGAACUCCAAGCGAAAGAAAUAAU [ArgEX 16 #OpenEnded] has a reported apparent KD of MS2 coat protein of 22.7

###

I'd be grateful if you could share measured apparent KD of MS2 coat protein for these entries.
Tested on: MS2 coat protein
Test: apparent KD of MS2 coat protein; designed switch direction (-1 OFF switch, 1 ON switch): -1; higher = weaker reporter binding
Details: input ligand: FMN 200 uM
Quick note: give the figure in nM, leave out the unit.

The sequence listed as AAUAAGCGAGGAUAUACACCCGGAAAACGGGAACGGGCGAGACAUGAGGAUCACCCAUGUAGAAGGCGCGUCAA [Sogexe] (Eterna round: R97, puzzle: Exclusion 2) has a reported apparent KD of MS2 coat protein of 28

The sequence listed as UGAAAGUGAGGAUAUCCAAUAUAUGACAUGAGGAUCACCCAUGUUUCCACUCGUACCUCCGGAGAAGGCACAAAGU [Ex5 #58] (Eterna round: R97, puzzle: Exclusion 5) has a reported apparent KD of MS2 coat protein of 26.2

The sequence listed as UGAUCUACUGAGGAUAUUAUAUCACCCGACUGAUAAGAAGGCAGUACAUGAGGAUCACCCAUGUGGGUAGCCAU [Polaris9] (Eterna round: R97, puzzle: Exclusion 6) has a reported apparent KD of MS2 coat protein of 50.8

The sequence listed as GUCCUGCAGCUUUGCUGUAGGCGUACAUGAGGAUCACCCAUGUAGGAUAUGGUAGGCUUUGCUUACUAGAAGGAUAGAGUGAUC [JL EXNG3 1.28] (Eterna round: R96, puzzle: Exclusion NG 3) has a reported apparent KD of MS2 coat protein of 43.1

The sequence listed as UAAUGUGCGAGAGGAUAUCGUGUACAAAGUACACGAGAAGGCUUCACAUGAGGAUCACCCAUGUACCGAGGUGAAACACCUUGG [Omei Exc(NG)1 Bv1] (Eterna round: R96, puzzle: Exclusion NG 1) has a reported apparent KD of MS2 coat protein of 355
